test: Equivalent alkane carbon number (EACN) in model microemulsion system; assay type: physicochemical; conditions: C10E5/water/isopropyl myristate model system, 3% wt perfume ingredient
measuredProperty: EACN
Lab note: record the figure alone, no unit after it.

Reported EACN for CCCc1ccc2c(c1)OCC(=O)CO2 [7-propyl-2H,4H-1,5-benzodioxepin-3-one] : what is it?
-40.99

Next:
Reported EACN for CC1=C(C=O)C(C)(C)CC=C1 : what is it?
-6.62

Reported EACN for CC(C=O)Cc1ccc2c(c1)OCO2 (racemic) : what is it?
-11.56

Reported EACN for CC/C(=C\C[C@H]1CC=C(C)C1(C)C)CO : what is it?
-23.86

Reported EACN for Cc1ccc(C(C)C)c(O)c1 : what is it?
-43.68

Reported EACN for Cc1ccc2c(c1)CC(C)(CO)C2 (racemic) [(+-)-2,5-dimethyl-2-indanmethanol] : what is it?
-33.01

Reported EACN for N#C/C=C/c1ccccc1 [(E)-3-phenyl-2-propenenitrile] : what is it?
-14.36

Reported EACN for CC1=CC(C)C(CO)C(C)C1 (racemic) : what is it?
-25.02

Reported EACN for CC/C=C\CCCCCO [(Z)-6-nonen-1-ol] : what is it?
-29.91

Reported EACN for CC(C)c1ccc(CO)cc1 : what is it?
-36.04

Reported EACN for O=C/C=C/c1ccccc1 [(E)-3-Phenyl-2-propenal] : what is it?
-13.35

Reported EACN for CC(=O)OC(C)c1ccccc1 (racemic) [(+-)-1-phenylethyl acetate] : what is it?
-0.99

Reported EACN for C/C(=C\c1ccc(C)cc1)CO : what is it?
-36.15

Reported EACN for C/C=C/c1ccc(O)c(OC)c1 [2-methoxy-4-[(1E)-1-propen-1-yl]phenol] : what is it?
-42.88

Reported EACN for CC(C)=CCC/C(C)=C\C=O : what is it?
-5.09

----------
test: physchem; assay type: physicochemical; settings: n-octanol/water, HPLC method; read-out: Log P
measuredProperty: chromatographic logP
Lab note: record the figure alone, no unit after it.

Field: example entries. Status: answers known.
Reported chromatographic logP for CCC/C=C/COC(C)=O [(E)-2-hexenyl acetate] : what is it?
2.59

Reported chromatographic logP for C=CCc1ccc(O)c(OC)c1 : what is it?
2.14

Reported chromatographic logP for COC(=O)c1ccccc1N [methyl 2-aminobenzoate] : what is it?
1.83

Reported chromatographic logP for Cc1ccc(C(C)C)cc1O : what is it?
2.52

Reported chromatographic logP for c1ccc2[nH]ccc2c1 : what is it?
1.74

Next:
Reported chromatographic logP for CCOC(=O)/C=C/c1ccccc1 [Ethyl(E)-3-phenyl-2-propenoate] : what is it?
3

Reported chromatographic logP for CCCCCCC1CCC(=O)O1 (racemic) [(+-)-4-decanolide] : what is it?
3.02

----------
assay: physchem; assay type: physicochemical; settings: n-octanol/water, HPLC method; read-out: Log P
measuredProperty: chromatographic logP
Lab note: record the figure alone, no unit after it.

Reported chromatographic logP for CC1=C(C=O)C(C)(C)CC=C1 : what is it?
2.57

Reported chromatographic logP for CCCc1cccc(O)c1 : what is it?
2.1

Reported chromatographic logP for CC(C)(O)CCc1ccccc1 : what is it?
2.69

Reported chromatographic logP for N#C/C=C/c1ccccc1 [(E)-3-phenyl-2-propenenitrile] : what is it?
1.98

Reported chromatographic logP for C/C(=C\c1ccc(C)cc1)CO : what is it?
2.29

Next:
Reported chromatographic logP for CCCc1ccc(O)c(OC)c1 : what is it?
2.39

----------
assay: Equivalent alkane carbon number (EACN) in model microemulsion system; assay type: physicochemical; details: C10E5/water/isopropyl myristate model system, 3% wt perfume ingredient
Where a name gives a salt, the structure may show the parent alone.
measuredProperty: EACN
Lab note: record the figure alone, no unit after it.

Field: example entries. Status: answers known.
Reported EACN for CCOC(=O)Cc1ccccc1 [ethyl phenylacetate] : what is it?
-7.26

Reported EACN for COC(=O)c1ccccc1N [methyl 2-aminobenzoate] : what is it?
-22.57

Reported EACN for O=COCCc1ccccc1 [2-phenylethyl formate] : what is it?
-6.21

Reported EACN for CCC/C=C/COC(C)=O [(E)-2-hexenyl acetate] : what is it?
1.12

Reported EACN for C=C(C)[C@@H]1CC=C(CO)CC1 [(-)-(S)-1,8-P-menthadien-7-ol] : what is it?
-30.83

Next:
Reported EACN for CCCCCCCCCCC=O [undecanal] : what is it?
4.59

Reported EACN for CC1=CCC(C(C)(C)O)CC1 (racemic) [(+-)-alpha-terpineol] : what is it?
-16.69

Reported EACN for C=C/C(C)=C\CC1OC1(C)C (racemic) : what is it?
-1.45

Reported EACN for CC/C(CC(C)CC)=N/O (racemic) : what is it?
-13.67

Reported EACN for CC(CCO)CCc1ccccc1 (racemic) [(+-)-3-methyl-5-phenyl-1-pentanol] : what is it?
-37.05

Reported EACN for CC(C)=CCC/C(C)=C/CO [(E)-3,7-dimethyl-2,6-octadien-1-ol] : what is it?
-28.65

----------
test: physchem; type: physicochemical
We label by threshold. Values of Log P strictly beneath 3 are MET. Values of 3 and up are NOT MET.

The examples below pair each entry with its known result.
Would you kindly verify if Log P of CC/C=C\CCCCCO [(Z)-6-nonen-1-ol] is strictly less than 3?
NOT MET

Would you kindly verify if Log P of C=C(C)[C@@H]1CC=C(CO)CC1 [(-)-(S)-1,8-P-menthadien-7-ol] is strictly less than 3?
MET

Would you kindly verify if Log P of O=C1CCC[C@H]2[C@@H]1[C@H]1C=C[C@@H]2C1 (racemic) is strictly less than 3?
MET

Next:
Would you kindly verify if Log P of CC/C(CC(C)CC)=N/O (racemic) is strictly less than 3?
MET

Would you kindly verify if Log P of CC1=CC[C@H]([C@H](C)CCO)CC1 (single isomer, unassigned) is strictly less than 3?
NOT MET

----------
assay: Equivalent alkane carbon number (EACN) in model microemulsion system; assay type: physicochemical; settings: C10E5/water/isopropyl myristate model system, 3% wt perfume ingredient
measuredProperty: EACN
Lab note: record the figure alone, no unit after it.

Field: example entries. Status: answers known.
Reported EACN for C/C(C=O)=C\c1ccccc1 [(2E)-2-methyl-3-phenyl-2-propenal] : what is it?
-12.17

Reported EACN for CCC(C)(O)CCCC(C)C (racemic) [(+-)-3,7-dimethyl-3-octanol] : what is it?
-4.83

Reported EACN for CC(CO)c1ccccc1 (racemic) [(+-)-2-phenyl-1-propanol] : what is it?
-29.67

Reported EACN for CC/C=C\CC/C=C/CO [(2E,6Z)-2,6-nonadien-1-ol] : what is it?
-35.12

Next:
Reported EACN for CC(C)=CCC/C(C)=C\CO [(Z)-3,7-dimethyl-2,6-octadien-1-ol] : what is it?
-28.26

Reported EACN for CC(C)(O)CCc1ccccc1 [2-methyl-4-phenyl-2-butanol] : what is it?
-24.94

Reported EACN for CC(C)(C)C1CCC(=O)CC1 [4-(2-methyl-2-propanyl)cyclohexanone] : what is it?
-3.78

Reported EACN for CCCCCC1CCC(=O)O1 (racemic) [(+-)-4-nonanolide] : what is it?
-11.24

Reported EACN for CCCc1ccc(O)c(OC)c1 [2-methoxy-4-propyl phenol] : what is it?
-34.16

----------
assay: physchem; format: physicochemical; conditions: n-octanol/water, HPLC method; read-out: Log P
Reported chromatographic logP values are given for each entry in this list.
Lab note: record the figure alone, no unit after it.

Field: example entries. Status: answers known.
Reported chromatographic logP for CCC(C)(O)CCCC(C)C (racemic) [(+-)-3,7-dimethyl-3-octanol] : what is it?
3.78

Reported chromatographic logP for CC(C)(O)Cc1ccccc1 [2-methyl-1-phenyl-2-propanol] : what is it?
1.84

# context switch: different compound, same chromatographic logP
Reported chromatographic logP for CCCCCC1CCC(=O)O1 (racemic) [(+-)-4-nonanolide] : what is it?
2.45

----------
assay: Equivalent alkane carbon number (EACN) in model microemulsion system; format: physicochemical; conditions: C10E5/water/isopropyl myristate model system, 3% wt perfume ingredient
measuredProperty: EACN
Lab note: record the figure alone, no unit after it.

Reported EACN for Cc1ccc(C(C)C)cc1O : what is it?
-43.89

Reported EACN for CCC/C=C/CO : what is it?
-21.91

Reported EACN for O=C1CCC[C@H]2[C@@H]1[C@H]1C=C[C@@H]2C1 (racemic) : what is it?
-5.81

Reported EACN for CC1=CC[C@H]([C@H](C)CCO)CC1 (single isomer, unassigned) : what is it?
-34.57

Reported EACN for C=CCc1ccc(O)c(OC)c1 : what is it?
-31.24

Reported EACN for CCCCCCC1CCC(=O)O1 (racemic) [(+-)-4-decanolide] : what is it?
-4.96

Reported EACN for CC/C=C\CC1=C(C)CCC1=O : what is it?
-8.51

Reported EACN for CC(C)(O)Cc1ccccc1 : what is it?
-17.89

Reported EACN for CCCCCC1CCCC(=O)O1 (racemic) [(+-)-6-pentyltetrahydro-2H-pyran-2-one] : what is it?
-13.27

Reported EACN for CCCCC(CC)CO (stereo not drawn) : what is it?
-22.63
